# Tested on: K562
# assay method text: NCI tumour cell line growth inhibition, 48 h
Calls of active or inactive are those of the source. No stated cut-off is given here; in the data, active = GI50 up to about 1.1 µM and inactive = higher.
This section presents molecules with their documented GI50 values.

Field: example entries. Status: answers known.
[
  {
    "molecule": "CN(C)CCNC(=O)c1ccc(NCCCN(C)CCCNc2ccc(C(=O)NCCN(C)C)c3nc4ccccc4c(O)c23)c2c(O)c3ccccc3nc12",
    "GI50": "0.0394 µM (active)"
  },
  {
    "molecule": "CC(=O)OCC1OC(Sc2ccccn2)C=CC1OC(C)=O (stereo not drawn)",
    "GI50": "> 100 µM (inactive)"
  }
]

INPUT: Specify reported GI50 for the molecule shown: `CCOC(=O)CNc1c(OCc2ccccc2)c(=O)c1=O`
OUTPUT: > 100 µM (inactive)
